# maps each entry to its IC50
target of assay: human A3 receptors (Homo sapiens, UniProt P0DMS8)
Sequence (P0DMS8 1-318): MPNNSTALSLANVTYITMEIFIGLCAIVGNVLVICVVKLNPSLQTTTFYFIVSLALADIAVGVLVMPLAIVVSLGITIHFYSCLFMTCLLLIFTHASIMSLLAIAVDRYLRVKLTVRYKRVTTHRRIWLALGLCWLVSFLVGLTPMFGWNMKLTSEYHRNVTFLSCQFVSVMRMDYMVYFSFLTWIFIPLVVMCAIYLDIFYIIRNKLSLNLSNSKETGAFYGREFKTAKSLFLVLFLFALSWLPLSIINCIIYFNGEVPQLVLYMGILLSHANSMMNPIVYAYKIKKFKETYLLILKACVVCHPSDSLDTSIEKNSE
Numeric only. Scale: nM

compound="CNC(=O)[C@H]1O[C@@H](n2cnc3c(NCc4cc(I)c5oc(N(C)C)nc5c4)ncnc32)C(O)C1O (stereo partly shown)" property_name=IC50 units_symbol=nM assay_value=0.0016

Turning to the following compound.
Record CNC(=O)[C@H]1O[C@@H](n2cnc3c(NCc4cccc(C(C)=O)n4)ncnc32)C(O)C1O (stereo partly shown) , field IC50: 0.4

====

target of assay: A1 receptor (Cavia porcellus, UniProt P47745)
Sequence (P47745 1-326): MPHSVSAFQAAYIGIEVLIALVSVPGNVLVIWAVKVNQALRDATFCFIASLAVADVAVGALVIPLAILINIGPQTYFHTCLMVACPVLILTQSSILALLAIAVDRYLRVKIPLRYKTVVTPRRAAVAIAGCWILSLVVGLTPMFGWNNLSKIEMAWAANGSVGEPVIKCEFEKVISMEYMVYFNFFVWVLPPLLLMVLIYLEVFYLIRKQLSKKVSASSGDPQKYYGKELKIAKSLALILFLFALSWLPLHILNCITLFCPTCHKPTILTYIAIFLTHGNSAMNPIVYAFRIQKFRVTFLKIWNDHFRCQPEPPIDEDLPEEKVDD
protocol summary: A1 receptor functional activity, negative inotropic response of isolated paced left atria
reported conditions: read-out: IC50, negative inotropic action at A1 receptors of guinea-pig atria
property name: IC50 (µM)
Please reply with the bare figure in µM and do not write the unit itself.

Item: CNC(=O)[C@H]1O[C@@H](n2cnc3c(NCc4cc(I)c5oc(N(C)C)nc5c4)ncnc32)C(O)C1O (stereo partly shown) [Compound 6] | IC50: 10
